These entries and their values trace back to patent US9029337B2.

- System: human Factor 7 mRNA
- TEST PROTOCOL: Dose-dependent antisense inhibition of human Factor 7 in HepB3 cells, lipofectin
- Assay type: cell-based
- REPORTED CONDITIONS: Table 3, 25.0 nM, approximately 16 hours
Strand notation (5' to 3'): a small letter for the sugar, then the base; units joined by * are phosphorothioate-linked, units joined directly phosphodiester-linked; [ ] holds rarer units or linkages, { } end groups; capitals alone tell only the bases. e = 2'-O-(2-methoxyethyl) (MOE); [5mC] = 5-methylcytosine; d = 2'-deoxy (DNA)
Reported percent inhibition of Factor 7 values follow for various substances
Entry rule: numbers only, all in %.

Below are worked cases with known answers.
407935 (antisense eA*eT*eG*e[5mC]*eA*dT*dG*dG*dT*dG*dA*dT*dG*d[5mC]*dT*eT*e[5mC]*eT*eG*eA) [compound 407935]    89
407606 (antisense e[5mC]*eT*eG*eG*eT*d[5mC]*d[5mC]*dT*dT*dG*d[5mC]*dA*dG*dG*dA*eG*e[5mC]*e[5mC]*e[5mC]*e[5mC]) [compound 407606]    55
407594 (antisense e[5mC]*e[5mC]*eT*eG*e[5mC]*dA*dG*d[5mC]*d[5mC]*dA*dG*dG*d[5mC]*dA*dG*e[5mC]*e[5mC]*e[5mC]*eT*eG) [compound 407594]    77

Read the entry 407910 (antisense eA*eG*eT*e[5mC]*e[5mC]*dT*dT*dG*d[5mC]*dT*dG*d[5mC]*d[5mC]*dA*dT*e[5mC]*e[5mC]*eG*eA*eG) [compound 407910] and write its reported percent inhibition of Factor 7. 68

* * *

- Test system: human Factor 7 mRNA
- TEST PROTOCOL: Dose-dependent antisense inhibition of human Factor 7 in HepB3 cells, lipofectin
- Type: cell-based
- REPORTED CONDITIONS: 50 nM, HepB3 cells, approx. 16 hours (Table 14)
Strand notation (5' to 3'): a small letter for the sugar, then the base; units joined by * are phosphorothioate-linked, units joined directly phosphodiester-linked; [ ] holds rarer units or linkages, { } end groups; capitals alone tell only the bases. e = 2'-O-(2-methoxyethyl) (MOE); [5mC] = 5-methylcytosine; d = 2'-deoxy (DNA)
REPORTED METRIC: percent inhibition of Factor 7 mRNA, relative to untreated control cells
Units required after the number.

Example results:
422152 (antisense eA*eT*eG*d[5mC]*dA*dT*dG*dG*dT*dG*dA*dT*dG*d[5mC]*dT*dT*d[5mC]*eT*eG*eA) [compound 422152]    83%
422292 (antisense eG*eT*dT*d[5mC]*dT*dG*d[5mC]*dA*dG*dG*dA*dG*d[5mC]*dG*dG*e[5mC]*e[5mC]*eT*eA*eA) [compound 422292]    81%

Let's switch to this substance now.
Write down percent inhibition of Factor 7 mRNA, relative to untreated control cells measured for item 407935 (antisense eA*eT*eG*e[5mC]*eA*dT*dG*dG*dT*dG*dA*dT*dG*d[5mC]*dT*eT*e[5mC]*eT*eG*eA) [compound 407935] 85%

* * *

- System: human Factor 7 mRNA
- TEST PROTOCOL: Antisense inhibition of human Factor 7 mRNA in HepB3 cells, 50 nM antisense oligonucleotide, lipofectin
- Format: cell-based
- REPORTED CONDITIONS: Table 1, 50 nM, lipofectin, approximately 24 hours, relative to untreated control cells
Strand notation (5' to 3'): a small letter for the sugar, then the base; units joined by * are phosphorothioate-linked, units joined directly phosphodiester-linked; [ ] holds rarer units or linkages, { } end groups; capitals alone tell only the bases. e = 2'-O-(2-methoxyethyl) (MOE); [5mC] = 5-methylcytosine; d = 2'-deoxy (DNA)
Quick reference: % Inhibition of the listed items.
Value expressed in %; do not type the unit.

Solved entries (count: 5):
407604 (antisense e[5mC]*eA*e[5mC]*eA*e[5mC]*dT*dG*dG*dT*d[5mC]*d[5mC]*d[5mC]*d[5mC]*dA*dT*e[5mC]*eA*e[5mC]*eT*eG) [compound 407604]    34
407945 (antisense eA*eA*eT*e[5mC]*eA*dT*dG*dG*dG*d[5mC]*dA*dA*d[5mC]*d[5mC]*d[5mC]*eA*eG*eT*eG*eG) [compound 407945]    56
407620 (antisense eA*eG*eG*eA*e[5mC]*d[5mC]*dT*dG*d[5mC]*d[5mC]*dA*dT*dG*dG*dA*e[5mC]*eA*e[5mC]*eT*e[5mC]) [compound 407620]    79
407664 (antisense e[5mC]*eA*eG*eG*eG*d[5mC]*dG*dA*dG*dG*d[5mC]*dA*dA*d[5mC]*d[5mC]*e[5mC]*e[5mC]*eG*eT*eG) [compound 407664]    70
407624 (antisense eG*eA*eG*eA*e[5mC]*d[5mC]*dA*d[5mC]*d[5mC]*d[5mC]*dA*dG*dA*dT*dG*eG*eT*eG*eT*eT) [compound 407624]    73

Give the value of % Inhibition reported for the following: 407609 (antisense eA*eG*eA*eA*eG*d[5mC]*dA*dG*dA*dT*dA*dT*dA*dG*dG*eA*e[5mC]*eT*eG*eG) [compound 407609] 35

# return recorded % Inhibition for entry 407957 (antisense eG*eG*e[5mC]*e[5mC]*eT*dG*dG*dG*dA*dA*d[5mC]*dT*dT*dG*d[5mC]*eA*eT*eT*eT*eA) [compound 407957] 52

Quickly give me recorded % Inhibition for 407919 (antisense eT*e[5mC]*eG*eA*eT*dG*dT*dA*d[5mC]*dT*dG*dG*dG*dA*dG*eA*e[5mC]*e[5mC]*e[5mC]*eT) [compound 407919] 84

Indicate its recorded % Inhibition; the substance in question is 407938 (antisense e[5mC]*eA*e[5mC]*e[5mC]*e[5mC]*dA*dG*d[5mC]*dG*dA*dA*dG*dG*dG*dA*eG*eA*eA*eA*eT) [compound 407938] 60

Answer with the recorded % Inhibition for the substance listed here: 407669 (antisense eT*eA*eG*eA*e[5mC]*d[5mC]*d[5mC]*dT*d[5mC]*dA*dG*dT*dG*dA*dG*eT*eG*eT*e[5mC]*eG) [compound 407669] 57

Give me measured % Inhibition, please, for this substance: 407923 (antisense e[5mC]*eA*eG*eG*eA*d[5mC]*dA*dG*dT*dT*d[5mC]*dG*dA*d[5mC]*dG*e[5mC]*eA*eG*e[5mC]*e[5mC]) [compound 407923] 76
